ASSAYED TARGET: Dipeptidyl peptidase 2 (Homo sapiens, UniProt Q9UHL4)
PROCEDURE SUMMARY: Inhibition of human recombinant DPP7 expressed in baculovirus-infected Sf9 cells by fluorescence plate reader method
pIC50: −log10 of the molar value.

- COMPOUND: "COc1ccc(N2CCN(CCNCC(=O)N3CCCC3C#N)C2=O)cc1OC (single isomer, unassigned)"
  pIC50: "< 4.00"

* * *

ASSAYED TARGET: Dipeptidyl peptidase 9 (Homo sapiens, UniProt Q86TI2)
Sequence (Q86TI2 whole entry): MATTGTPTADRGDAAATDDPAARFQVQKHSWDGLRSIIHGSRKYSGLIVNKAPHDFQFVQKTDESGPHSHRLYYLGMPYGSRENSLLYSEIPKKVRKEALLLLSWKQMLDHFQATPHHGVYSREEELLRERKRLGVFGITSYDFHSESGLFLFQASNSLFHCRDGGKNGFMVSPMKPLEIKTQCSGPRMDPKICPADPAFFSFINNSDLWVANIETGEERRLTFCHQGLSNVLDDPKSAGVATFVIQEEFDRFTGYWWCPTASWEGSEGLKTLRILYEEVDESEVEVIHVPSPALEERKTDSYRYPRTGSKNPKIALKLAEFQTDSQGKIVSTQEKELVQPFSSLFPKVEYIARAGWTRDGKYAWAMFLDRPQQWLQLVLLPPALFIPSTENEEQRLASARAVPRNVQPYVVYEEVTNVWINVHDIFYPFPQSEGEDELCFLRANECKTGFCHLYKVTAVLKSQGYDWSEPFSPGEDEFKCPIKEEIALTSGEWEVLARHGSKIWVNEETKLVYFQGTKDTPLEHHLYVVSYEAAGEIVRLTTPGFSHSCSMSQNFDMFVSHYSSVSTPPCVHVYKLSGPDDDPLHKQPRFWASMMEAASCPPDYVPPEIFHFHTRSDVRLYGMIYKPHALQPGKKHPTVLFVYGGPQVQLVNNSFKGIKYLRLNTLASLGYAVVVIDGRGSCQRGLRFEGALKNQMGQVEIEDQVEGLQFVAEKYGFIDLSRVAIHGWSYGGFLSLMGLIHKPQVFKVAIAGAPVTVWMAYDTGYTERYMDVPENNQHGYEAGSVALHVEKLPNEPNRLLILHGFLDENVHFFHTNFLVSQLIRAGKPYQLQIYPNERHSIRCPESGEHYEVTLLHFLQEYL

- MOLECULE: "COc1ccc(N2CCN(CCNCC(=O)N3CCCC3C#N)C2=O)cc1OC (single isomer, unassigned)"
  IC50: "> 100 µM"
